The following binders are shown together with reported pKd values.
- targetSystem: PDZRN4_1, Q6ZMN7
- Sequence (Q6ZMN7 213-318): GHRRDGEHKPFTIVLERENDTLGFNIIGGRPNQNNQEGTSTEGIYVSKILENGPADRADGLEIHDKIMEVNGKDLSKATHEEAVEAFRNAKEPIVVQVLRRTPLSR
- assayOverview: holdup assay
- Set-up: key: below the threshold = too weak to quantify, mostly under pKd 3.1 to 4
- conditionLabel: plain residues with an end cap or a label only (N-terminal biotin on a linker: ado-ado)
Note: the reply should be a number with no unit written.

Please review the entries below; each comes with its answer.
EEPEERHTEL [CES2, O00748]	4.13
GFGEERESIL [KIDINS220, Q9ULH0]	4.61

In the following, a different binder is considered.
Ask | pKd for FVHPILQSAV [PRKCA, P17252] ?
Reply | 3.92
